Values were extracted from the supplement of paper PMC13380429.

- System: A549-ACE2
- assay explanation: drug-induced phospholipidosis relative to tamoxifen; higher = more phospholipidosis
- conditions used: 0.3 µM; 48 h
// reported drug-induced phospholipidosis for each item listed
readout type: drug-induced phospholipidosis (%)

>>> print(df.to_string())
                                   molecule  recorded_value
0  N#CC[C@@H](C1CCCC1)n1cc(-c2ncnc3[nH]ccc23)cn1 [ruxolitinib-(S)]           -3.03
1  CC(=O)O[C@@H]1C[C@H]2C(C)(C)C(=O)C=C[C@]2(C)[C@H]2CC[C@@]3(C)[C@H](c4ccoc4)OC(=O)[C@H]4O[C@]43[C@@]21C            7.32
2  COCC(=O)O[C@]1(CCN(C)CCCc2nc3ccccc3[nH]2)CCc2cc(F)ccc2[C@@H]1C(C)C            0.45
3  CN1CC2c3ccccc3Oc3ccc(Cl)cc3C2C1 (stereo not given)            2.52
4  Cc1[nH]c(/C=C2\C(=O)Nc3ccc(F)cc32)c(C)c1C(=O)NCCN1CCCC1            5.94

---

- Tested on: U2OS
- assay explanation: cell viability relative to DMSO; higher = less toxic
- conditions used: 72 h; 10 nM
// reported cell viability for each item listed
readout type: cell viability (%)

compound	measurement target	recorded value
Sc1ncnc2nc[nH]c12	U2OS	101
N#Cc1ccnc(N2C(=O)CC[C@H]2C(=O)N(c2cncc(F)c2)[C@H](C(=O)NC2CC(F)(F)C2)c2ccccc2Cl)c1	U2OS	100
CCN(CCO)CCCC(C)Nc1ccnc2cc(Cl)ccc12 (stereo not drawn) [hydroxychloroquine]	U2OS	98.1
Cc1[nH]c(/C=C2\C(=O)Nc3ccc(F)cc32)c(C)c1C(=O)NCCN1CCCC1	U2OS	97.9
COc1cc(Cc2cnc(N)nc2N)c(C(C)C)cc1OC	U2OS	99.7
Cc1cc(C(=O)Nc2nc3cccc(Cl)c3n2[C@@H]2CCCCN(C(=O)/C=C/CN(C)C)C2)ccn1	U2OS	98.9
COc1cc2c(cc1OC)[C@@H](Cc1cc(OC)c(OC)c(OC)c1)[N+](C)(CCCOC(=O)CC/C=C/CCC(=O)OCCC[N+]1(C)CCc3cc(OC)c(OC)cc3[C@H]1Cc1cc(OC)c(OC)c(OC)c1)CC2 (stereo partly drawn)	U2OS	99.8
CC(CNC1CCCCC1)OC(=O)c1ccccc1 (stereo not drawn)	U2OS	101

---

// reported drug sensitivity score for each item listed
- Tested on: Vero E6
- assay explanation: drug sensitivity score (DSS) for viability; higher = more toxic; extreme values may be limits of the assay
- conditions used: 72 h

compound	drug sensitivity score
O=C(Nc1cccnc1)N1CCC(Cc2cccc(Oc3ccc(C(F)(F)F)cn3)c2)CC1 [PF-3845]	0.6
C[C@H](c1ccc(F)cc1CCCC(=O)O)N(c1cc(F)ccc1F)S(=O)(=O)c1ccc(Cl)cc1	0
Cc1csc(NC(=O)CSc2ccc(-c3ccccc3)nn2)n1	0
Nc1ccc2ncnc(NCCc3ccc(Oc4ccccc4)cc3)c2c1 [EVP4593]	4.4
O=C(O)Cc1ccccc1Nc1c(Cl)cccc1Cl [diclofenac]	0
Fc1cc(-c2cccc3ncc(-c4cnn(C5CCNCC5)c4)nc23)cc(F)c1CN1CCOCC1 [NVP-BSK805]	2.7
N[C@@H](Cc1cc(I)c(Oc2ccc(O)c(I)c2)c(I)c1)C(=O)O [liothyronine]	1
C[C@H]1[C@H](C)CC[C@]2(C(=O)O)CC[C@]3(C)C(=CC[C@@H]4[C@@]5(C)C[C@@H](O)[C@H](O)[C@@](C)(CO)[C@@H]5CC[C@]43C)[C@H]12 [asiatic-acid]	0
COc1cc(-c2ccc(=O)[nH]n2)ccc1OC(F)F [zardaverine]	0
CC(C)(CCCCCC(O)CCCCCC(C)(C)C(=O)O)C(=O)O [bempedoic-acid]	0
CC(C)C[C@H](NC(=O)OCc1ccccc1)C(=O)N[C@@H](C[C@@H]1CCNC1=O)C(O)S(=O)(=O)O (stereo partly drawn) [GC376 sodium]	0
CCN(CC)CCNC(=O)COc1ccc(OC)cc1 [mefexamide]	0
CC(CNC1CCCCC1)OC(=O)c1ccccc1 (stereo not drawn) [hexylcaine]	0
c1cc(Nc2cc(C3CC3)n[nH]2)nc(Nc2ccc3[nH]cnc3c2)n1 [APY-29]	7
O=C(Nc1ccccc1)OCC(CN1CCCCC1)OC(=O)Nc1ccccc1 (stereo not drawn) [diperodon]	0
COC[C@H](NC(=O)c1cnc(C)s1)C(=O)N[C@@H](COC)C(=O)N[C@@H](Cc1ccccc1)C(=O)[C@@]1(C)CO1 [oprozomib]	18.7
O=C(O)c1ccccc1Nc1cccc(OCc2ccc3ccccc3n2)c1 [SR-2640]	0
COc1cc(N2CCC(N3CCN(C)CC3)CC2)ccc1Nc1ncc(Cl)c(Nc2ccccc2P(C)(C)=O)n1 [brigatinib]	1.4
CN(C)C/C=C/C(=O)Nc1ccc(C(=O)Nc2cccc(Nc3ncc(Cl)c(-c4c[nH]c5ccccc45)n3)c2)cc1 [THZ1]	11.5
CC[C@]12C=CCN3CC[C@@]4(c5cc([C@@]6(C(=O)OC)C[C@@H]7C[C@@H](C(C)(F)F)CN(Cc8c6[nH]c6ccccc86)C7)c(OC)cc5N(C)[C@H]4[C@@](O)(C(=O)OC)[C@@H]1OC(C)=O)[C@@H]32 [Vinflunine Ditartrate]	8.8
OCCN1CCN(CCCN2c3ccccc3C=Cc3ccccc32)CC1 [opipramol]	0.5
CC(=O)Nc1ccc(OC(C)=O)cc1 [diacetamate]	0
CC1=C(C(=O)O)N2C(=O)[C@@H](NC(=O)[C@H](N)c3ccccc3)[C@H]2SC1 [cephalexin]	0
Brc1ccc(NC2C3CC4CC(C3)CC2C4)cc1 (stereo not drawn) [bromantan]	0
N#Cc1cnc2cnc(NCc3cccnc3)cc2c1Nc1ccc(F)c(Cl)c1 [TC-S-7006]	0
COc1cccc2c1C(=O)c1c(O)c3c(c(O)c1C2=O)C[C@@](O)(C(C)=O)C[C@@H]3O[C@H]1C[C@H](N)[C@H](O)[C@H](C)O1 [daunorubicin]	10.8
CN(C)CC[C@H](CSc1ccccc1)Nc1ccc(S(=O)(=O)NC(=O)c2ccc(N3CCN(Cc4ccccc4-c4ccc(Cl)cc4)CC3)cc2)cc1[N+](=O)[O-] [ABT-737]	0
CC(C)Cc1ccc([C@@H](C)C(=O)NS(C)(=O)=O)cc1 [reparixin]	0
N#Cc1cc(-c2n[nH]c(-c3ccncc3)n2)ccn1 [topiroxostat]	0
CCOC(=O)/C=C(C)/C=C/C=C(C)/C=C/c1c(C)cc(OC)c(C)c1C [etretinate]	0
CN(C)CC/C=C1/c2ccccc2Sc2ccc(Cl)cc21 [chlorprothixene]	0
CN1CCN(c2ccc(Nc3ncc4cc(C#N)c(=O)n(C5CCCC5)c4n3)cc2)CC1	2.2
COc1ccc(C(=O)NCc2cccnc2)cc1C(=O)NCc1cccnc1 [picotamide]	0
